- measurementTarget: 26S proteasome non-ATPase regulatory subunit 10 (Homo sapiens) (UniProt O75832)
- Sequence (whole entry): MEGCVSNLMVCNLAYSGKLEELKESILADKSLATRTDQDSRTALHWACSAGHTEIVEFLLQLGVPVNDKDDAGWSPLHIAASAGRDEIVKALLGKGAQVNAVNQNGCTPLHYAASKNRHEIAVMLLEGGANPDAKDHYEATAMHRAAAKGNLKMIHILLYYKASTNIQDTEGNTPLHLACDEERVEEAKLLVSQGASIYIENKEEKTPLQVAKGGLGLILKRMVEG
- testName: Binding affinity to gankyrin (unknown origin) assessed as increase in melting temperature at 300 uM by thermal shift assay
Activity calls are given as the source filed them. The rule behind the calls is not given here.
Hi! Could you answer with just one of these? class 1 = active, class 0 = inactive

Please review the entries below; each comes with its answer.
| structureString | classification |
| --- | --- |
| Cc1ccc(-n2cc(CCCOS(=O)(=O)c3ccc(C)cc3)nn2)cc1 | class 1 |
| Cc1ccc(S(=O)(=O)OCCCc2cn(-c3ccc(C#N)cc3)nn2)cc1 | class 0 |
| COc1ccc(-n2cc(CCCOS(=O)(=O)c3ccc(-c4ccccc4)cc3)nn2)cc1 | class 0 |
| Cc1ccc(S(=O)(=O)OCCCc2cn(-c3ccccc3-c3ccccc3)nn2)cc1 | class 1 |
| N#Cc1cccc(-n2cc(CCCOS(=O)(=O)c3ccc(I)cc3)nn2)c1 | class 0 |
| CCc1cccc(-n2cc(CCCOS(=O)(=O)c3ccc(C)cc3)nn2)c1 | class 1 |
| COc1ccc(-n2cc(CCCOS(=O)(=O)c3ccc(C)cc3)nn2)cc1 | class 1 |
| CCc1ccccc1-n1cc(CCCOS(=O)(=O)c2ccc(C)cc2)nn1 | class 0 |
| COc1cccc(-n2cc(CCCOS(=O)(=O)c3ccc(C)cc3)nn2)c1 | class 1 |
| CCc1ccc(-n2cc(CCCOS(=O)(=O)c3ccc(C)cc3)nn2)cc1 | class 0 |

Asked: Which result was noted for this compound in the test: `Cc1ccc(S(=O)(=O)OCCCc2cn(-c3cccc(C(F)(F)F)c3)nn2)cc1`
Given back: class 1

* * *

- measurementTarget: 26S proteasome non-ATPase regulatory subunit 10 (Homo sapiens)
- testName: Binding affinity to gankyrin (unknown origin) assessed as increase in melting temperature at 300 uM by thermal shift assay
Activity calls are given as the source filed them. The calls are words filed in the database; no cut-off is given here.
Hi there, use one of these labels in your reply, thanks! class 1 for active, class 0 for inactive

Some entries whose results are on file:
| structureString | measurementTarget | classification |
| --- | --- | --- |
| Cc1ccc(S(=O)(=O)OCCCc2cn(-c3cccc(F)c3)nn2)cc1 | 26S proteasome non-ATPase regulatory subunit 10 (Homo sapiens) | class 1 |
| Cc1ccc(S(=O)(=O)OCCCc2cn(-c3ccc(F)cc3)nn2)cc1 | 26S proteasome non-ATPase regulatory subunit 10 (Homo sapiens) | class 0 |
| Cc1ccc(S(=O)(=O)OCCCc2cn(-c3ccc(C(C)C)cc3)nn2)cc1 | 26S proteasome non-ATPase regulatory subunit 10 (Homo sapiens) | class 0 |
| Cc1ccc(S(=O)(=O)OCCCc2cn(-c3ccccc3F)nn2)cc1 | 26S proteasome non-ATPase regulatory subunit 10 (Homo sapiens) | class 0 |
| Cc1ccc(S(=O)(=O)OCCCc2cn(-c3ccc(I)cc3)nn2)cc1 | 26S proteasome non-ATPase regulatory subunit 10 (Homo sapiens) | class 0 |

Asked: Can you look up the reported call for `Cc1ccc(S(=O)(=O)OCCCc2cn(-c3ccccn3)nn2)cc1` for me?
Given back: class 0

* * *

- Tested on: Hep3B
- testName: Cytotoxicity against human Hep3B cells assessed as reduction in cell viability incubated for 72 hrs by MTT assay
Entries annotated with measured IC50
I only need the number, in µM, no unit after it.

| structureString | IC50 / µM |
| --- | --- |
| Cc1ccc(S(=O)(=O)OCCCc2cn(-c3cccc(F)c3)nn2)cc1 | 82.1 |
| COC(=O)c1ccc(-n2cc(CCCOS(=O)(=O)c3ccc(-c4ccccc4)cc3)nn2)cc1 | 26 |
| Cc1ccc(S(=O)(=O)OCCCc2cn(-c3cccc(C#N)c3)nn2)cc1 | 44.9 |

Now for the compound whose IC50 we want.
Asked: Please look at `Cc1ccc(S(=O)(=O)OCCCc2cn(-c3ccc(C(F)(F)F)cc3)nn2)cc1` and tell me its recorded IC50 on Hep3B.
Given back: 42.7

* * *

- measurementTarget: 26S proteasome non-ATPase regulatory subunit 10 (Homo sapiens)
- testName: Binding affinity to gankyrin (unknown origin) assessed as increase in melting temperature at 300 uM by thermal shift assay
The source made the active and inactive calls. The rule behind the calls is not given here.

| structureString | measurementTarget | Activity |
| --- | --- | --- |
| COc1ccccc1-n1cc(CCCOS(=O)(=O)c2ccc(C)cc2)nn1 | 26S proteasome non-ATPase regulatory subunit 10 (Homo sapiens) | Active |
| Cc1ccc(S(=O)(=O)OCCCc2cn(-c3ccc(Br)cc3)nn2)cc1 | 26S proteasome non-ATPase regulatory subunit 10 (Homo sapiens) | Active |
| Cc1ccc(S(=O)(=O)OCCCc2cn(-c3cccc(C#N)c3)nn2)cc1 | 26S proteasome non-ATPase regulatory subunit 10 (Homo sapiens) | Active |

* * *

- measurementTarget: 26S proteasome non-ATPase regulatory subunit 10 (Homo sapiens) (UniProt O75832)
- Sequence (whole entry): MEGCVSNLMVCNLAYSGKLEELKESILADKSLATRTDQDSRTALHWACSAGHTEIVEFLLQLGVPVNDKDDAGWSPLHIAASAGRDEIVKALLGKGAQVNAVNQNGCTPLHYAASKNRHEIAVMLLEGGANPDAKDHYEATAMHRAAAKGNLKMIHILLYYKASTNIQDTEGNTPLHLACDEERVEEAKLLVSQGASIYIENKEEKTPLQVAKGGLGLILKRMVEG
- testName: Binding affinity to gankyrin (unknown origin) assessed as increase in melting temperature at 300 uM by thermal shift assay
The source made the active and inactive calls. The rule behind the calls is not given here.
Valid outcomes are listed here; reply with one: active, inactive

Solved cases below.
| structureString | classification |
| --- | --- |
| Cc1ccc(S(=O)(=O)OCCCc2cn(-c3ccc(Cl)cc3)nn2)cc1 | active |
| Cc1ccc(S(=O)(=O)OCCCc2cn(-c3ccc(C(F)(F)F)cc3)nn2)cc1 | active |
| Cc1ccc(S(=O)(=O)OCCCc2cn(-c3cccc(C)c3)nn2)cc1 | active |
| Cc1ccc(S(=O)(=O)OCCCc2cn(-c3ccncc3)nn2)cc1 | inactive |
| N#Cc1cccc(-n2cc(CCCOS(=O)(=O)c3ccc(-c4ccccc4)cc3)nn2)c1 | inactive |
| COc1ccc(-n2cc(CCCOS(=O)(=O)c3ccc(I)cc3)nn2)cc1 | inactive |

Asked: Test call, this compound: `Cc1ccc(S(=O)(=O)OCCCc2cn(-c3ccccc3C)nn2)cc1`
Given back: active

Asked: Per the assay record, what outcome was assigned to `Cc1ccc(S(=O)(=O)OCCCc2cn(-c3cccc(Br)c3)nn2)cc1` ?
Given back: active

Asked: Hey, what did the test say about `Cc1ccc(S(=O)(=O)OCCCc2cn(-c3ccccc3C(F)(F)F)nn2)cc1` ?
Given back: active

Asked: Which outcome was entered for the compound `Cc1ccc(S(=O)(=O)OCCCc2cn(-c3nccs3)nn2)cc1` in this test?
Given back: inactive

* * *

- System: Hep3B
- testName: Cytotoxicity against human Hep3B cells assessed as reduction in cell viability incubated for 72 hrs by MTT assay
Recorded IC50 for the following molecules

See these solved cases before continuing.
| structureString | measurementTarget | observedResult |
| --- | --- | --- |
| COC(=O)c1ccc(-n2cc(CCCOS(=O)(=O)c3ccc(C)cc3)nn2)cc1 | Hep3B | > 100 µM |
| COc1ccc(-n2cc(CCCOS(=O)(=O)c3ccc(C)cc3)nn2)cc1 | Hep3B | > 100 µM |

Lab note: next molecule to report on.
Asked: Output measured IC50 for this item: `Cc1ccc(-n2cc(CCCOS(=O)(=O)c3ccc(C)cc3)nn2)cc1`
Given back: > 100 µM
